- ASSAYED TARGET: Endonuclease III-like protein 1 (Homo sapiens);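 further: enzyme assay tracking NTHL1 cutting and release of a quenched double-stranded DNA oligo substrate, read as fluorescence at 594 nm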
- Sequence (whole entry): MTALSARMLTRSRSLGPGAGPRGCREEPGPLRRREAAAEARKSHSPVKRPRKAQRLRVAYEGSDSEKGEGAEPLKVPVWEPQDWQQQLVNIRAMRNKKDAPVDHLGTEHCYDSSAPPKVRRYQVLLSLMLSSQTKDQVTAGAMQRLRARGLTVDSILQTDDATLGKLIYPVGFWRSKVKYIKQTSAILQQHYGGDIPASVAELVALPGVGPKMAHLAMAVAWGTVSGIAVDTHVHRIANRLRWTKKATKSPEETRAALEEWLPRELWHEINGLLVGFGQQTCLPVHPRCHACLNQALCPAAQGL
- REPORTED CONDITIONS: Compound Concentration 10.0 uM, Hit No
- Description: Inhibition of NTHL1 by quantifying inhibition of NTHL1-mediated cleavage and dissociation of quenched duplex DNA oligonucleotides, measured as fluorescence at 594 nm.
Field: inhibition. Provide a value for each of the compounds that follow.
Numbers only; they are read as %.

Fill in inhibition for "Cc1cccc([C@H](C)c2c[nH]cn2)c1C" tested with Endonuclease III-like protein 1 (Homo sapiens). -4.67

Fill in inhibition for Cc1ccccc1C(=O)Nc1ccc(C(=O)N2CCCC(N(C)C)c3ccccc32)cc1 (stereo not given) tested with Endonuclease III-like protein 1 (Homo sapiens). 21.2

Fill in inhibition for "FC(F)(F)c1cccc(-c2noc(-c3cc(-c4ccccc4)c(C(F)(F)F)s3)n2)c1" tested with Endonuclease III-like protein 1 (Homo sapiens). 4.86

Fill in inhibition for "O=S(=O)(c1ccccc1)N(CC(F)(F)F)c1ccc(C(O)(C(F)(F)F)C(F)(F)F)cc1" tested with Endonuclease III-like protein 1 (Homo sapiens). -5.89

Fill in inhibition for "CC1(C)Cc2c(CN3CCC4(CC3)CCN(C(=O)c3ccc(N)cn3)CC4)cccc2O1" tested with Endonuclease III-like protein 1 (Homo sapiens). 8.82

Fill in inhibition for "CCN(CC)S(=O)(=O)Nc1cccc(-c2ccc3c(NC(=O)C4CC4)n[nH]c3c2)c1" tested with Endonuclease III-like protein 1 (Homo sapiens). 9.15

Fill in inhibition for "COc1ccc(OC)c(-c2ccc(NC(=O)c3ccncc3F)cc2)c1" tested with Endonuclease III-like protein 1 (Homo sapiens). -0.258

Fill in inhibition for "Cc1c(C(=O)NN2CCCCC2)nn(-c2ccc(Cl)cc2Cl)c1-c1ccc(Cl)cc1" tested with Endonuclease III-like protein 1 (Homo sapiens). -0.275

Fill in inhibition for COc1cc2nc(N(C)CCCNC(=O)C3CCCO3)nc(N)c2cc1OC (stereo not given) tested with Endonuclease III-like protein 1 (Homo sapiens). 27.8

Fill in inhibition for "CCCCCCCCc1ccc(CC[C@](N)(CO)COP(=O)(O)O)cc1" tested with Endonuclease III-like protein 1 (Homo sapiens). -3.94

###

- ASSAYED TARGET: Uracil-DNA glycosylase (Homo sapiens) (UniProt P13051);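 further: UNG excision on a quenched double-stranded DNA oligo probe, with APE1 added for strand incision and turnover, read as fluorescence at 594 nm as strands separate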
- Sequence (P13051 whole entry): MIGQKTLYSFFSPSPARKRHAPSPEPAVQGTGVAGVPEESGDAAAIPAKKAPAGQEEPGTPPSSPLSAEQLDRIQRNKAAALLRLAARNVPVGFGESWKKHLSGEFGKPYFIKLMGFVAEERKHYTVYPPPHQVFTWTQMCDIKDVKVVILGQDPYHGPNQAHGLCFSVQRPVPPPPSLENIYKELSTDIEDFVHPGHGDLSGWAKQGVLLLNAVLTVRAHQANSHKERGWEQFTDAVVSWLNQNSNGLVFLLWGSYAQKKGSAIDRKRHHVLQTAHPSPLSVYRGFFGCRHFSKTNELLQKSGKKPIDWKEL
- REPORTED CONDITIONS: Compound Concentration 10.0 uM, Hit No
- Description: Inhibition of UNG by quantifying inhibition of UNG-mediated cleavage and dissociation of quenched duplex DNA oligonucleotides, measured as fluorescence at 594 nm. To generate a functional strand incision and increase turn-over this assay is coupled to APE1.
Field: inhibition. Provide a value for each of the molecules that follow.
Numbers only; they are read as %.

Write down inhibition measured for item CCOC(=O)C1=C(C)NC(C)=C(C(=O)OC)C1c1cccc([N+](=O)[O-])c1 (stereo not given) -2.15

Write down inhibition measured for item "O=C(Nc1cc(C(F)(F)F)cc(C(F)(F)F)c1)c1cc(Cl)ccc1O" -1.16

Write down inhibition measured for item "Cn1cc(Cl)c2c(Oc3c(F)cc(Nc4cc(Cl)nc(N)n4)cc3F)ccnc21" 11.7

Write down inhibition measured for item "NS(=O)(=O)c1cncc(-c2nc(NCc3ccccn3)c3c(-c4ccccc4)cccc3n2)c1" 0.783

Write down inhibition measured for item "CCC(F)(F)c1cc(N2CCC(S(C)(=O)=O)CC2)nc2sc(C(N)=O)c(N)c12" 3.95

Write down inhibition measured for item "O=C1CCc2cc(Nc3cc(OC4CCOCC4)c([N+](=O)[O-])cc3Cl)ccc2N1" 4.09

Write down inhibition measured for item "COCC(=O)NC/C=C/c1ccc2ncnc(Nc3ccc(Oc4ccc(C)nc4)c(C)c3)c2c1" 9.27

Write down inhibition measured for item "CCNC1(C(N)=O)CCN(c2ncnc3c2nc(-c2ccccc2Cl)n3-c2ccc(Cl)cc2)CC1" -6.19

Write down inhibition measured for item "CC(=O)N1CCC(c2ccc(C(=O)NC3=NCCN3)cc2C(F)(F)F)CC1" -0.0445

Write down inhibition measured for item "COc1ccc(NC(=O)[C@@H]2C[C@H](C)CC[C@H]2C(C)C)cc1" -3.01

Write down inhibition measured for item "Cc1nc(C#Cc2ccnc(Cl)c2)c(C)n1-c1ccc(OC(F)(F)F)cc1" -8.09

Write down inhibition measured for item "CN(c1ncccc1CNc1ccnc(-c2cc3cc(Cl)ccc3[nH]2)n1)S(C)(=O)=O" 1.54

Write down inhibition measured for item "C[C@@H]1C[C@H](C)CN(c2ncc(Cl)c(Nc3ccc4c(c3)cc(OC(C)(C)C(=O)O)c(=O)n4C)n2)C1" 7.75

Write down inhibition measured for item "O=C(Nc1cc(-c2ccccc2)nn1-c1ccccc1F)c1ccc([N+](=O)[O-])cc1" -0.319

Write down inhibition measured for item "Cc1cc(-c2nncc3c(C(C)(C)C)c(OCc4ncnn4C)nn23)no1" -3.18

Write down inhibition measured for item "N[C@@H](CCP(=O)(O)O)C(=O)O" -0.352

Write down inhibition measured for item "CC(C)(O)c1cncc(-c2nc3ccc(F)cc3n2C2CC2)c1" -3.32

Write down inhibition measured for item "Cc1c(-c2cc(-c3ccccc3Cl)no2)cnn1C1CCNCC1" -3.3

Write down inhibition measured for item "CN(C)C(=O)C(CCN1CCC(O)(c2ccc(Cl)cc2)CC1)(c1ccccc1)c1ccccc1" -5.39

Write down inhibition measured for item "CCCn1c(=O)c2[nH]c(-c3ccc(OCC(=O)Nc4ccc(C#N)cc4)cc3)nc2n(CCC)c1=O" -6.42

This collection of values is drawn from ChEMBL document CHEMBL5665443.
